Target Or Test System: Virion infectivity factor (Human immunodeficiency virus type 1 group M subtype B (isolate BH10)) + Virion infectivity factor (Human immunodeficiency virus type 1 group M subtype B (isolate BRU/LAI)) + Virion infectivity factor (Human immunodeficiency virus type 1 group M subtype B (isolate PCV12)) + Virion infectivity factor (Human immunodeficiency virus type 1 group M subtype B (isolate HXB2)) + DNA dC->dU-editing enzyme APOBEC-3G (Homo sapiens) (UniProt P69720+P69721+P69722+P69723+Q9HC16)
Measurement Description: inhibitors of Vif binding to APOBEC3G peptide, primary screen, biochemical, TR-FRET, GST-Vif 1-94, biotin-A3G peptide, dose response retest (AID 1117319);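 note: Vif residues 1-94 fused to GST binding biotinylated APOBEC3G peptide 110-148; 0% = full assay without inhibitor and 100% = GST in place of GST-Vif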
Measurement Context: active compounds read high
Hit rate of the full screen: of about 260,000 compounds, about 1,500 (0.58%) were called active. Inconclusive results (about 5%) are left out. A selection follows. Entries with a potency or affinity are not part of this list.
Items are presented alongside their recorded inhibition.
The response must be a number in % with no trailing unit.

1) COCCN(CCOC)Cc1c(O)ccc2c1O/C(=C\c1ccco1)C2=O
25.4

### Prompt Form field: reported inhibition of Cc1ccc(/C=C2\Oc3c(ccc(O)c3CN3CCN(CCO)CC3)C2=O)cc1
### Response -6.62

### Prompt Same thing, different molecule: C=CCC[C@H](Cc1ccc(F)cc1)C(=O)OC[C@@H](C)NC(=O)[C@H](CC=C)CC(=O)N(CCO)Cc1ccccc1
### Response 0.83

### Prompt Continue with COc1ccc(Cc2nnc(SCC(=O)NC(C)c3ccccc3)o2)cc1 (stereo unspecified)
### Response 8.9

### Prompt Input CCc1ccc(C(=O)Nc2cc(C)ccc2F)s1
### Response -4.32

### Prompt And then Cc1ccc2c(C)c(C(=O)NCCc3ccco3)oc2c1C , what is it?
### Response -1.77

### Prompt Try this molecule too: CCc1ccccc1Nc1nc(N)nc(CSc2nnnn2C)n1
### Response 0.07

### Prompt Repeat with CN1CCN(c2nnc(-c3ccc(Cl)cc3)c3ccccc23)CC1
### Response 3.71

### Prompt Consider next the molecule CCCn1c(NC(=O)CSCC(=O)Nc2cc(C)on2)nc2ccccc21 in the same way.
### Response -0.74

### Prompt Now the same for CC1CCCCN1Cc1ccc(N)cc1 (stereo unspecified)
### Response -2.03

### Prompt Then this molecule: O=C(Nc1ccc(S(=O)(=O)N2CCCCC2)cc1)c1ccccc1Cl
### Response 0.17

====

Parameter inhibition: see the listing below.
Target Or Test System: Virion infectivity factor (Human immunodeficiency virus type 1 group M subtype B (isolate BH10)) + Virion infectivity factor (Human immunodeficiency virus type 1 group M subtype B (isolate BRU/LAI)) + Virion infectivity factor (Human immunodeficiency virus type 1 group M subtype B (isolate PCV12)) + Virion infectivity factor (Human immunodeficiency virus type 1 group M subtype B (isolate HXB2)) + DNA dC->dU-editing enzyme APOBEC-3G (Homo sapiens) (UniProt P69720+P69721+P69722+P69723+Q9HC16)
Measurement Description: inhibitors of Vif binding to APOBEC3G peptide, primary screen, biochemical, TR-FRET, GST-Vif 1-94, biotin-A3G peptide, dose response retest (AID 1117319)
Measurement Context: active compounds read high
About 1,500 (0.58%) of roughly 260,000 compounds were called active. Not shown: some 5% with an inconclusive outcome. The list is a sample of the results. Potency and affinity values are given separately.
The reply should be a number in %, with the unit left off.

### Prompt Tell me the measured inhibition of COc1ccc(CNC(=O)c2ccccc2NS(C)(=O)=O)cc1 , please.
### Response 1.78

### Prompt Similarly, C#Cc1ccc([C@@H]2C=C(C(=O)OCC=C)O[C@H](OCc3ccc(CO)cc3)C2)cc1 ?
### Response 6.58

### Prompt Ok, now CC1CCCCC1NC(=O)c1c(O)nc2ccccn2c1=O (stereo unspecified)
### Response -12.1

### Prompt Another compound to look at: CCCNC(=O)c1ccccc1C(=O)NCCC
### Response -3.84

### Prompt Also CC12CCC(=O)C=C1CCC1C2C(O)CC2(C)C1CCC2(O)C(=O)COC(=O)COCC(=O)O (stereo unspecified) ?
### Response 0.66

### Prompt Record: COC(=O)Nc1nc2c(C)cccc2s1
### Response 1.68

### Prompt Similarly, CC(Oc1cccc(Cl)c1)C(=O)NNC(=O)c1cccnc1 (stereo unspecified) ?
### Response -4.59

====

Target Or Test System: Virion infectivity factor (Human immunodeficiency virus type 1 group M subtype B (isolate BH10)) + Virion infectivity factor (Human immunodeficiency virus type 1 group M subtype B (isolate BRU/LAI)) + Virion infectivity factor (Human immunodeficiency virus type 1 group M subtype B (isolate PCV12)) + Virion infectivity factor (Human immunodeficiency virus type 1 group M subtype B (isolate HXB2)) + DNA dC->dU-editing enzyme APOBEC-3G (Homo sapiens) (UniProt P69720+P69721+P69722+P69723+Q9HC16)
Measurement Description: inhibitors of Vif binding to APOBEC3G peptide, primary screen, biochemical, TR-FRET, GST-Vif 1-94, biotin-A3G peptide, dose response retest (AID 1117319);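 note: Vif residues 1-94 fused to GST binding biotinylated APOBEC3G peptide 110-148; 0% = full assay without inhibitor and 100% = GST in place of GST-Vif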
Measurement Context: active compounds read high
The campaign covered roughly 260,000 compounds. About 1,500 (0.58%) were called active. About 5% were inconclusive and are not listed. The list is a sample of the results. Entries with a potency or affinity are not part of this list.
Reported inhibition values are given for each entry in this list.

### Prompt GET /values?readout=inhibition&item= COC(=O)c1ccccc1NC(=O)Nc1ccc(Cl)cn1
### Response -0.47% (inactive)

====

Listed here are compounds together with their documented inhibition.
Target Or Test System: Virion infectivity factor (Human immunodeficiency virus type 1 group M subtype B (isolate BH10)) + Virion infectivity factor (Human immunodeficiency virus type 1 group M subtype B (isolate BRU/LAI)) + Virion infectivity factor (Human immunodeficiency virus type 1 group M subtype B (isolate PCV12)) + Virion infectivity factor (Human immunodeficiency virus type 1 group M subtype B (isolate HXB2)) + DNA dC->dU-editing enzyme APOBEC-3G (Homo sapiens) (UniProt P69720+P69721+P69722+P69723+Q9HC16)
Measurement Description: inhibitors of Vif binding to APOBEC3G peptide, primary screen, biochemical, TR-FRET, GST-Vif 1-94, biotin-A3G peptide, dose response retest (AID 1117319);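 note: Vif residues 1-94 fused to GST binding biotinylated APOBEC3G peptide 110-148; 0% = full assay without inhibitor and 100% = GST in place of GST-Vif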
Measurement Context: active compounds read high
Out of some 260,000 compounds screened, about 1,500 (0.58%) were called active. Roughly 5% stayed inconclusive and do not appear here. Only a sample is shown. Results with a measured potency or affinity are listed apart.

Examples with answers:
1. COc1ccc(OC)c(Nc2nc(C3CC3)nc3c2nnn3Cc2ccccc2)c1
-2.66% (inactive)
2. Oc1ccc(/C=N\Nc2nncc(-c3ccccc3)n2)cc1
-5.32% (inactive)
3. C[C@H]1CN([C@@H](C)CO)C(=O)CCCn2nncc2CO[C@@H]1CN(C)Cc1ccc(Cl)c(Cl)c1
-0.91% (inactive)
4. NC(=O)c1ccc(OCC(F)(F)F)nc1
-12.4% (inactive)

### Prompt Bench note: what inhibition did COc1ccc(-n2c(Cc3cc(=O)[nH]c(=O)[nH]3)nnc2SCC(=O)NC2CCCC2)cc1 show?
### Response 2.26% (inactive)

====

Below is a list of entries, each paired with its recorded inhibition value.
Target Or Test System: Virion infectivity factor (Human immunodeficiency virus type 1 group M subtype B (isolate BH10)) + Virion infectivity factor (Human immunodeficiency virus type 1 group M subtype B (isolate BRU/LAI)) + Virion infectivity factor (Human immunodeficiency virus type 1 group M subtype B (isolate PCV12)) + Virion infectivity factor (Human immunodeficiency virus type 1 group M subtype B (isolate HXB2)) + DNA dC->dU-editing enzyme APOBEC-3G (Homo sapiens) (UniProt P69720+P69721+P69722+P69723+Q9HC16)
Measurement Description: inhibitors of Vif binding to APOBEC3G peptide, primary screen, biochemical, TR-FRET, GST-Vif 1-94, biotin-A3G peptide, dose response retest (AID 1117319);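 note: Vif residues 1-94 fused to GST binding biotinylated APOBEC3G peptide 110-148; 0% = full assay without inhibitor and 100% = GST in place of GST-Vif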
Measurement Context: active compounds read high
Among all 260,000 compounds or so, about 1,500 (0.58%) were called active. Inconclusive results (about 5%) are left out. The list is a sample of the results. Entries with a potency or affinity are not part of this list.
Give just the numeric value; % need not be written.

1. Cc1ccc(C(=O)/C=C/Nc2cccc(O)c2)cc1
1.59

### Prompt Which inhibition is reported for this compound? CCOC(=O)C(=O)NC(C)c1ccccc1 (stereo unspecified)
### Response 1.23

### Prompt Also CCOCCCNC(=O)/C=C1\Sc2ccccc2N(Cc2ccccc2F)C1=O , if possible.
### Response -8.36

### Prompt Check Cc1cccc(NC(=O)CN(C)S(=O)(=O)c2cccc3cccnc23)c1 too.
### Response 2.4

### Prompt Would you kindly repeat that for O=C1OCCC1Sc1nnc(-c2cccnc2)n1-c1ccccc1F (stereo unspecified) ?
### Response 5.98

### Prompt And then COC(=O)c1c(NC(=O)c2nc3nc(C)cc(C(F)F)n3n2)sc2c1CCC2 , what is it?
### Response -2.56
